study.target: Calcium and integrin-binding protein 1 (Homo sapiens)
assay.explanation: Primary qHTS for Identification of Calcium Integrin Binding Protein 1 (CIB1) Competitor (AID 1508620);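 also: GST tagged CIB1 binding a fluorescein labelled alphaIIb integrin peptide tracer; top concentration of the series differs between compounds; % is scaled to controls: 0 for no effect and ±100 for the full control effect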
experimental.conditions: CIB1-GST / FITC-alphaIIb peptide fluorescence polarization; series mostly up to 114 µM
Records with an inconclusive call do not appear. Calls of active or inactive are those of the source. Calls follow the shape of the dose curve; as a rule, active = well fitted inhibition curve with a large enough effect; inconclusive = small, poorly fitted or top-dose-only effect; inactive = flat fitted curve, though single readings scatter.
Result category, one only: active, inactive

Field: example entries. Status: answers known.
O=S(=O)(Nc1nccs1)c1ccc(NCc2cccc(O)c2)cc1: inactive
Cc1ccc(S(=O)(=O)NCCC(=O)Nc2nc(-c3ccccc3)cs2)cc1: inactive
Cc1ccc(-c2ccc(=O)n(CC(=O)NCCc3ccc(O)cc3)n2)cc1: inactive
CCc1nn2c(=O)cc(-c3ccncc3)nc2s1: inactive
COc1ccc(-c2cnc(N3CCC(C(N)=O)CC3)s2)cc1OC: inactive
O=c1c2ccccc2nc2sc(Nc3cccc(N4CCNCC4)c3)nn12: inactive

Record request — test call for O=[N+]([O-])c1cccc(S(=O)(=O)N2CCN(S(=O)(=O)c3ccc4c(c3)OCCO4)CC2)c1
inactive

Record request — test call for Nc1ccc(Nc2cc(O)c3ncccc3c2)cc1
inactive

Record request — test call for O=C(Nc1cc(C(F)(F)F)ccc1Cl)[C@H](O)CCc1ccccc1
inactive

---

study.target: Cytochrome P450 2C9 (Homo sapiens) (UniProt P11712)
Sequence (P11712 whole entry, looked up): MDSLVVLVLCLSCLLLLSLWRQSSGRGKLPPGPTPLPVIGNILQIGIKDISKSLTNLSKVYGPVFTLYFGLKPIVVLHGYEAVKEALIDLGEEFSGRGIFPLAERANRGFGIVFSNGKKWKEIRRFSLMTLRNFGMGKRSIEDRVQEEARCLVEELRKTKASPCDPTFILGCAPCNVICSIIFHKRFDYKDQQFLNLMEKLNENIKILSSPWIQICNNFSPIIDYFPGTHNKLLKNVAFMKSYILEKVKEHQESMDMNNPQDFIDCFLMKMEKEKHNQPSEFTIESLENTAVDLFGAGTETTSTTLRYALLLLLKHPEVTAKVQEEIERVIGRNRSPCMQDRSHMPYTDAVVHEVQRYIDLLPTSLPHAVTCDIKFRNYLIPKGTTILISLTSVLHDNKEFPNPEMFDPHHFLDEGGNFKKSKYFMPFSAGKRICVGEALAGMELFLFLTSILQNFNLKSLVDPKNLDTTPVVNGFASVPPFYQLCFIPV
assay.explanation: qHTS Assay for Inhibitors and Substrates of Cytochrome P450 2C9 (AID 883); also: % is scaled to controls: 0 for no effect and ±100 for the full control effect; nearly all actives have a fitted effect of over 60% in size
experimental.conditions: recombinant CYP2C9, luciferin-H luminescence, 60 min; series mostly up to 57.1 µM
Results filed as inconclusive are left out. Active and inactive are the calls of the source. Calls follow the shape of the dose curve; as a rule, active = well fitted inhibition curve with a large enough effect; inconclusive = small, poorly fitted or top-dose-only effect; inactive = no such curve, though single readings can be large or run the other way.
Give measured activity change, negative = inhibition for each item. Keep answers brief.

In the examples that follow, each entry is paired with its recorded activity change, negative = inhibition.
COc1ccccc1-c1cc(NCc2ccccc2)ncn1: 35.7% [at 2.29 µM] (inactive)
CN(C)C(=O)c1ccc(-c2nc(NC3CCNCC3)c3ccccc3n2)cc1: 46.2% [at 2.29 µM] (inactive)
COc1ccc(CNc2ncnc3ccc(-c4ccccc4CN(C)C)cc23)c(OC)c1: 2.97% [at 2.29 µM] (inactive)

Hello, I would appreciate it if you could give activity change, negative = inhibition for each entry below.
1. CNc1ccnc(-c2c(C)noc2C)n1
2. CN(C)Cc1ccccc1-c1cc(NC2CC2)ncn1
3. CNc1nc(-c2ccccc2Cl)nc2ccccc12
4. CN(C)c1ccnc(-c2cccc(NS(C)(=O)=O)c2)n1
5. Cc1noc(C)c1-c1cc(N2CCN(C)CC2)ncn1
6. COCCNc1ccnc(-c2ccccc2C(F)(F)F)n1
7. FC(F)(F)c1ccccc1-c1nccc(N2CCNCC2)n1
8. COc1ccc(CNc2ncncc2-c2cccnc2)c(OC)c1

1. 41% [at 2.29 µM] (inactive)
2. 5.15% [at 2.29 µM] (inactive)
3. 75.1% [at 2.29 µM] (inactive)
4. 2.49% [at 2.29 µM] (inactive)
5. 31% [at 2.29 µM] (inactive)
6. 34.3% [at 2.29 µM] (inactive)
7. 37.4% [at 2.29 µM] (inactive)
8. 26.1% [at 2.29 µM] (inactive)

// fetch activity change, negative = inhibition; item: CN(C)C(=O)c1ccc(-c2ccc3ncnc(N4CCC(C(=O)O)CC4)c3c2)cc1 ; system: Cytochrome P450 2C9 (Homo sapiens) (UniProt P11712)
37.2% [at 2.29 µM] (inactive)
